# System: HCC827
# experiment_notes: Cytotoxicity against human HCC827 cells assessed as growth inhibition after 72 hrs by resazurin dye-based fluorescence analysis
# Assay type: functional
# condition_parameters: HCC827, 72 h
Mark each entry Condition met if its GI50 sits below 4000 nM, and Condition not met for all others.

Q) Dear reviewer, please state whether "N[C@H]1CC[C@H](Nc2nc(Nc3ccccc3CN3CCOCC3)c3ncn(C4CCCC4)c3n2)CC1" has GI50 strictly beneath 4000 nM.
A) Condition not met

Q) And what about the compound "COc1ccccc1-c1ccc(Nc2nc(N[C@H]3CC[C@H](N)CC3)nc3c2ncn3C2CCCC2)cc1" ?
A) Condition met

Q) And what about the compound "N[C@H]1CC[C@H](Nc2nc(Nc3ccc(Oc4ccc(Br)cn4)cc3)c3ncn(C4CCCC4)c3n2)CC1" ?
A) Condition met

Q) And what about the compound "OCCCCNc1nc(Nc2ccc(Oc3nccs3)cc2)c2ncn(C3CCCC3)c2n1" ?
A) Condition not met

Q) And what about the compound "CC(C)(C)c1cc(NC(=O)Nc2ccc(-c3cn4c(n3)sc3cc(OCCN5CCOCC5)ccc34)cc2)no1" ?
A) Condition not met

Q) And what about the compound "N[C@H]1CC[C@H](Nc2nc(Nc3ccc(Oc4ncccn4)cc3)c3ncn(C4CCCC4)c3n2)CC1" ?
A) Condition met

Q) And what about the compound "Nc1ccccc1-c1ccc(Nc2nc(N[C@H]3CC[C@H](N)CC3)nc3c2ncn3C2CCCC2)cc1" ?
A) Condition met

Q) And what about the compound "N[C@H]1CC[C@H](Nc2nc(Nc3ccc(CN4CCOCC4)cc3)c3ncn(CCCO)c3n2)CC1" ?
A) Condition not met

Q) And what about the compound "COc1ccccc1-c1ccc(Nc2nc(N[C@H]3CC[C@H](N)CC3)nc3c2ncn3C2CCCC2)cn1" ?
A) Condition met

Q) And what about the compound "NCCCCNc1nc(Nc2ccc(N3CCN(Cc4ccccc4)CC3)cc2)c2ncn(CCCO)c2n1" ?
A) Condition not met

Q) And what about the compound "N[C@H]1CC[C@H](Nc2nc(Nc3ccc(CN4CCOCC4)cc3)c3ncn(C4CCCC4)c3n2)CC1" ?
A) Condition met

Q) And what about the compound "OCCCCNc1nc(Nc2ccc(CN3CCOCC3)cc2)c2ncn(CCCO)c2n1" ?
A) Condition not met

Q) And what about the compound "NCCCCNc1nc(Nc2ccccc2CN2CCOCC2)c2ncn(C3CCCC3)c2n1" ?
A) Condition not met

Q) And what about the compound "NCCCCNc1nc(Nc2ccc(CN3CCOCC3)cc2)c2ncn(C3CCCC3)c2n1" ?
A) Condition met

Q) And what about the compound "N[C@H]1CC[C@H](Nc2nc(Nc3ccc(-c4ccoc4)nc3)c3ncn(C4CCCC4)c3n2)CC1" ?
A) Condition met

Q) And what about the compound "N[C@H]1CC[C@H](Nc2nc(Nc3cccc(CN4CCOCC4)c3)c3ncn(C4CCCC4)c3n2)CC1" ?
A) Condition met

Q) And what about the compound "N[C@H]1CC[C@H](Nc2nc(Nc3ccc(N4CCN(Cc5ccccc5)CC4)cc3)c3ncn(CCCO)c3n2)CC1" ?
A) Condition met

====

Field: log10 GI50 at 72 h. Provide a value for each of the compounds that follow.
# experiment_notes: Cytotoxicity against human CEM cells assessed as growth inhibition after 72 hrs by resazurin dye-based fluorescence analysis
# Format: cell-based
# condition_parameters: CEM (CCRF-CEM) cells
Values below are the log10 of the recorded GI50 at 72 h, with µM as the unit.

Q) I am curious: what log10 GI50 at 72 h value has been reported for "N[C@H]1CC[C@H](Nc2nc(Nc3ccc(Oc4nccs4)cc3)c3ncn(C4CCCC4)c3n2)CC1" ?
A) -0.19

Q) And what about the compound "OCCCCNc1nc(Nc2ccc(CN3CCOCC3)cc2)c2ncn(CCCO)c2n1" ?
A) 0.71

Q) And what about the compound N[C@H]1CC[C@H](Nc2nc(Nc3cccc(CN4CCOCC4)c3)c3ncn(C4CCC(O)C4)c3n2)CC1 (some centres undefined) ?
A) 0.22

Q) And what about the compound "N[C@H]1CC[C@H](Nc2nc(Nc3ccc(Oc4ncccn4)cc3)c3ncn(C4CCCC4)c3n2)CC1" ?
A) 0.06

Q) And what about the compound "NCCCCNc1nc(Nc2ccc(Oc3nccs3)cc2)c2ncn(C3CCCC3)c2n1" ?
A) 0.94

Q) And what about the compound "OCCCCNc1nc(Nc2cccc(CN3CCOCC3)c2)c2ncn(C3CCCC3)c2n1" ?
A) 1.05

Q) And what about the compound "NCCCCNc1nc(Nc2ccc(N3CCN(Cc4ccccc4)CC3)cc2)c2ncn(CCCO)c2n1" ?
A) 0.88

Q) And what about the compound "COc1ccccc1-c1ccc(Nc2nc(N[C@H]3CC[C@H](N)CC3)nc3c2ncn3C2CCCC2)cc1" ?
A) 0.37

Q) And what about the compound OCCCCNc1nc(Nc2ccc(CN3CCOCC3)cc2)c2ncn(C3CCC(O)C3)c2n1 (centres undefined) ?
A) 0.81
